Biological target: NR1A/2C NMDA receptor (Rattus norvegicus, UniProt P35439+Q00961)
Sequence (Q00961 20-1237, other chains not shown): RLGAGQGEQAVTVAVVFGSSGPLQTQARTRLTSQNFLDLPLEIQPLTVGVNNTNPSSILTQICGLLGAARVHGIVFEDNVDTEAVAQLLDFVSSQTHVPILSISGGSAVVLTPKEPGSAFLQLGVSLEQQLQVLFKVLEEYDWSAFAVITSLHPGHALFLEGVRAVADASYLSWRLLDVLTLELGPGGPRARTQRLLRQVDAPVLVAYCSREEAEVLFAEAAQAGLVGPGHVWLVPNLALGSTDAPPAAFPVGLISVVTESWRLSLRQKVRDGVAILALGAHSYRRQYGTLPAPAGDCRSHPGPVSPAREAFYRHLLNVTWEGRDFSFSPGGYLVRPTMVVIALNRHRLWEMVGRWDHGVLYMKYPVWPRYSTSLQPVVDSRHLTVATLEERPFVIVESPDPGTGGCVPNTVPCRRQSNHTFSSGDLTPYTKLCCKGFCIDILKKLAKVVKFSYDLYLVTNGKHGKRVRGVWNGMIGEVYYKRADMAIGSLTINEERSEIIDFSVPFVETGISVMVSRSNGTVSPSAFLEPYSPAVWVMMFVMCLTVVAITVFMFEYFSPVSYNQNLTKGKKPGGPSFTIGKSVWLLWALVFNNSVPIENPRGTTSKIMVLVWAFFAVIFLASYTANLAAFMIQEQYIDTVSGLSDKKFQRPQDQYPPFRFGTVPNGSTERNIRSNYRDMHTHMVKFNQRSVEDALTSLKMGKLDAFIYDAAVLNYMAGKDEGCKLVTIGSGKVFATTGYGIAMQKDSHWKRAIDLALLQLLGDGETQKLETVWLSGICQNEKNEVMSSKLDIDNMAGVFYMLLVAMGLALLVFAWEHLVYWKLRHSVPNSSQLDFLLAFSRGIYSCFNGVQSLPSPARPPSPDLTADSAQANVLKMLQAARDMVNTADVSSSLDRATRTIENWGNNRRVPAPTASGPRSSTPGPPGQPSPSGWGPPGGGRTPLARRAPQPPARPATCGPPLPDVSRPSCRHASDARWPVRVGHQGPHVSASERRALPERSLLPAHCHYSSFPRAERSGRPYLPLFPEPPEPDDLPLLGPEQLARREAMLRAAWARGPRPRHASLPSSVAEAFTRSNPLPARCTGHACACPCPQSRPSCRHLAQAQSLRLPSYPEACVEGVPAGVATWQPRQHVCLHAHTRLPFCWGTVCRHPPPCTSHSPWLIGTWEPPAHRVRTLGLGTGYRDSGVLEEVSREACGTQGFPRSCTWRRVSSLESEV
Experiment: Xenopus oocyte expression system, two-electrode voltage clamp, NR1A/2C
Format: cell-based
Conditions: cloned NR1A/2C subunits expressed in Xenopus oocytes; inhibition of agonist-evoked membrane current; read-out: 1A/2C IC50
Where a name gives a salt, the structure may show the parent alone.
reported.metric: IC50

For reference, reported IC50 for c1ccc(OCCCN2CCc3c([nH]c4ccccc34)C2)cc1 [Ex. 25] stands at 175 µM

IC50 recorded for this compound, Fc1cccc(C[P+](c2ccccc2)(c2ccccc2)c2ccccc2)c1 [Ex. 8] , is > 300 µM

Measured IC50, O=C(CCCN1CCC(O)CC1)c1ccccc1 [Ex. 13, 4-(4-Hydroxypiperidinyl) butyrophenone] : 140 µM

GET /value?item= OCCCN1CCC(Cc2ccccc2)CC1 [Ex. 83, hydrobromide] &field=IC50 returns > 300 µM

Form: compound = c1ccc(CCCN2CCc3c([nH]c4ccccc34)C2)cc1 [Ex. 26] ; IC50 = 105 µM

For reference, reported IC50 for CC(O)CCN1CCC(Cc2ccc(N)cc2)CC1 (stereo not shown) [Ex. 105, hydrochloride] stands at > 300 µM

// IC50 lookup, compound = Br.Fc1ccc(OCCNN2CCC(Cc3ccc(Cl)cc3)CC2)cc1 [Ex. 106, hydrobromide] , result: 23 µM

Form field IC50, entry COc1ccc(CC2CCN(CCCO)CC2)cc1 [Ex. 93, hydrobromide] : > 300 µM

For NC(=O)CCCCN1CCC(Cc2ccccc2)CC1 [Ex. 2, 4-Benzylpiperidylpentamide] the compound record lists IC50 as > 300 µM

For this compound ( CC(O)CCN1CCC(Cc2ccc(Cl)cc2)CC1.Cl (stereo not shown) [Ex. 99, hydrochloride] ), measured IC50 is > 300 µM

The recorded IC50 for C#CCCN1CCC(O)(c2ccc(Cl)cc2)CC1 [Ex. 7] is > 300 µM

Note to self: IC50 recorded for Oc1ccc(CCNC2=NCC(Cc3ccccc3)CN2)cc1 (stereo not shown) [Ex. 103] was 58 µM

IC50 reading for OCCCN1CCC(O)(Cc2ccccc2)CC1 [Ex. 87] : > 300 µM

Please fill in: IC50 reported for Cl.Oc1ccc(OCCN2CCC(C[C@]34C[C@H]5C[C@H](C[C@H](C5)C3)C4)CC2)cc1 [Ex. 107] = 75 µM

Reported IC50 of OC1(Cc2ccccc2)CCN(CCCc2ccccc2)CC1 [Ex. 16] : 80 µM

Entry CC(O)CCN1CCC(Cc2ccc(F)cc2)CC1 (stereo not shown) [Ex. 91, hydrochloride] , IC50 reported as > 300 µM

Lookup result for Fc1cccc(C=C2CCN(Cc3ccccc3)CC2)c1 [Ex. 9] ; measured IC50: > 300 µM

The recorded IC50 for OCCCN1CCC(Cc2ccc(Cl)cc2)CC1 [Ex. 89, hydrobromide] is > 100 µM

// field: IC50; key: O=C(c1cccc(F)c1)C1CCN(CCCCc2ccccc2)CC1 [(C)] ; value = > 300 µM

# IC50 (compound: NCCCN1CCC(Cc2ccccc2)CC1 [Ex. 47, 4-Benzyl-1-(3-aminopropyl) piperidine] ) is > 300 µM

# IC50 (compound: CC(CCO)N1CCC(Cc2ccccc2)CC1 (stereo not shown) [Ex. 84] ) is > 300 µM

The compound O=c1[nH]c2ccc(OCCCN3CCc4ccccc4C3)cc2[nH]1 [Ex. 108] showed IC50 equal to > 300 µM

// OCCN1CCC(Cc2ccccc2)CC1 [Ex. 82, 4-Benzyl-1-(2-hydroxyethyl)piperidine] : IC50 value = > 300 µM

IC50 recorded for this compound, OCC(O)CN1CCC(Cc2ccccc2)CC1 (stereo not shown) [Ex. 85] , is > 300 µM

Reported IC50 of NNC(=O)CCCCN1CCC(Cc2ccccc2)CC1 [Ex. 3, 4-Benzylpiperidylpentahydrazide] : > 300 µM

According to the records, this compound O=c1[nH]c2ccc(OCCN3CCc4ccccc4C3)cc2[nH]1 [Ex. 109] displays IC50 of > 300 µM

Lab note: Cc1ccc(CC2CCN(CCC(C)O)CC2)cc1.Cl (stereo not shown) [Ex. 104, hydrochloride] gave IC50 of > 300 µM

// field: IC50; key: OCCCCN1CCC(Cc2ccccc2)CC1 [Ex. 86, hydrobromide] ; value = > 300 µM

For OCCCN1CCC(Cc2ccc(F)cc2)CC1 [Ex. 90, hydrobromide] the compound record lists IC50 as > 300 µM

Entry under test: OCC1CC2CC(Cc3ccccc3)CCN2C1 (stereo not shown) [Ex. 88] . Its IC50 was > 300 µM

Value of measured IC50 for the entry O=C(Nc1ccc([N+](=O)[O-])cc1)N1CCC(Cc2ccccc2)CC1 [Ex. 30] : > 100 µM
